// reported HLM QH per item
procedureDetails: Metabolic (microsomal) stability assay, human liver microsomes (HLM)
Assay type: in vitro ADME
runParameters: 1 μM test compound, predicted clearance as percent of liver blood flow
experimentalEndpoint: HLM QH

>>> resultvalue("CO[C@H]1CCN(C)[C@@H]1[C@H](C)Oc1nc(-c2onc3c2CCC[C@@]32CCCc3sc(N)c(C#N)c32)nc2c1n(C)c(=O)n2[C@@H]1CCOC1")
"77%"
>>> resultvalue("C[C@H](Oc1nc(-c2onc3c2CCC[C@@]32CCCc3sc(N)c(C#N)c32)nc2c1ncn2[C@@H]1CCOC1)[C@@H]1CCCN1C")
"28%"
>>> resultvalue("CO[C@H]1CCN(C)[C@@H]1[C@H](C)Oc1nc(-c2noc3c2CCC[C@@]32CCCc3sc(N)c(C#N)c32)nc2c1n(C)c(=O)n2[C@@H]1CCCOC1")
"80%"
>>> resultvalue("CCn1c(=O)n([C@@H]2CCCOC2)c2nc(-c3onc4c3CCC[C@@]43CCCc4sc(N)c(C#N)c43)nc(OCC3(CN4CCCC4)CC3)c21")
"53%"
>>> resultvalue("CO[C@@H]1C[C@@H]([C@H](C)Oc2nc(-c3onc4c3CCC[C@@]43CCCc4sc(N)c(C#N)c43)nc3c2n(C)c(=O)n3[C@@]23COC[C@@H]2C3)N(C)C1")
"34%"
>>> resultvalue("C[C@H](Oc1nc(-c2noc3c2CCC[C@@]32CCCc3sc(N)c(C#N)c32)nc2c1CN(C1COC1)C[C@]21CCOC1)[C@@H]1CCCN1C")
"26%"

----------
procedureDetails: Caco-2 assay (permeability and efflux ratio)
Assay type: in vitro ADME
runParameters: human, Caco-2 apical to basolateral permeability, pH 7.4, read-out: Caco PappAB
experimentalEndpoint: Papp A→B at 90 min, 10 μM (×10⁻⁶ cm/s)

>>> resultvalue("CO[C@@H]1C[C@@H]([C@H](C)Oc2nc(-c3onc4c3CCC[C@@]43CCCc4sc(N)c(C#N)c43)nc3c2n(C)c(=O)n3[C@@]23COC[C@@H]2C3)N(C)C1")
21
>>> resultvalue("C[C@H](Oc1nc(-c2noc3c2CCC[C@@]32CCCc3sc(N)c(C#N)c32)nc2c1CCO[C@]21CCOC1)[C@@H]1CCCN1C")
25
>>> resultvalue("C[C@H](Oc1nc(-c2onc3c2CCC[C@@]32CCCc3sc(N)c(C#N)c32)nc2c1n(C)c(=O)n2[C@H]1CCOC1)[C@@H]1CCCN1C")
20
>>> resultvalue("CO[C@@H]1C[C@@H]([C@H](C)Oc2nc(-c3noc4c3CCC[C@@]43CCCc4sc(N)c(C#N)c43)nc3c2n(C)c(=O)n3[C@@]23COC[C@@H]2C3)N(C)C1")
13
>>> resultvalue("CO[C@@H]1C[C@@H]([C@H](C)Oc2nc(-c3onc4c3CCC[C@@]43CCCc4sc(N)c(C#N)c43)nc3c2n(C)c(=O)n3[C@@H]2CCOC2)N(C)C1")
29
>>> resultvalue("C[C@H](Oc1nc(-c2noc3c2CCC[C@@]32SCCc3sc(N)c(C#N)c32)nc2c1COC[C@]21CCOC1)[C@@H]1CCCN1C")
12
>>> resultvalue("C[C@H](Oc1nc(-c2onc3c2CCC[C@@]32CCCc3sc(N)c(C#N)c32)nc2c1n(C)c(=O)n2[C@@H]1CCOC1)C12CCCN1CCC2")
2.9
>>> resultvalue("CO[C@@H]1C[C@@H]([C@H](C)Oc2nc(-c3noc4c3CCC[C@@]43CCCc4sc(N)c(C#N)c43)nc3c2COC[C@]32CCOC2)N(C)C1")
27
>>> resultvalue("C[C@H](Oc1nc(-c2onc3c2CCC[C@@]32CCCc3sc(N)c(C#N)c32)nc2c1[nH]c(=O)n2[C@@H]1CCOC1)[C@@H]1CCCN1C")
0.8
>>> resultvalue("CO[C@H]1CCN(C)[C@@H]1[C@H](C)Oc1nc(-c2onc3c2CCC[C@@]32CCCc3sc(N)c(C#N)c32)nc2c1CN(C1COC1)C[C@]21CCOC1")
35
>>> resultvalue("C[C@@H]1COC[C@H](n2c(=O)n(C)c3c(O[C@@H](C)[C@@H]4CCCN4C)nc(-c4onc5c4CCC[C@@]54CCCc5sc(N)c(C#N)c54)nc32)C1")
14
>>> resultvalue("COCCn1c(=O)n([C@@H]2CCOC2)c2nc(-c3onc4c3CCC[C@@]43CCCc4sc(N)c(C#N)c43)nc(O[C@@H](C)[C@@H]3CCCN3C)c21")
18
>>> resultvalue("C[C@H](Oc1nc(-c2noc3c2CCC[C@@]32CCCc3sc(N)c(C#N)c32)nc2c1COC[C@]21CCOC1)[C@@H]1CCCN1C")
23
>>> resultvalue("CO[C@@H]1C[C@@H]([C@H](C)Oc2nc(-c3noc4c3CCC[C@@]43CCCc4sc(N)c(C#N)c43)nc3c2CN(C2COC2)C[C@]32CCOC2)N(C)C1")
3.2
>>> resultvalue("C[C@H](Oc1nc(-c2noc3c2CCC[C@@]32CCCc3sc(N)c(C#N)c32)nc2c1CN(C1COC1)C[C@]21CCOC1)[C@@H]1CC[C@H](C)N1C")
16
>>> resultvalue("C[C@H](Oc1nc(-c2onc3c2CCC[C@@]32CCCc3sc(N)c(C#N)c32)nc2c1n(C)c(=O)n2[C@@]12COC[C@@H]1C2)[C@@H]1CCCN1C")
19
>>> resultvalue("C[C@H](Oc1nc(-c2onc3c2CCC[C@@]32CCCc3sc(N)c(C#N)c32)nc2c1CN(C1COC1)C[C@]21CCOC1)[C@@H]1CCCN1C")
8.4
>>> resultvalue("CO[C@@H]1C[C@@H]([C@H](C)Oc2nc(-c3onc4c3CCC[C@@]43CCCc4sc(N)c(C#N)c43)nc3c2n(C)c(=O)n3[C@H]2COC[C@@H](C)C2)N(C)C1")
34
>>> resultvalue("C[C@H](Oc1nc(-c2onc3c2CCC[C@@]32CCCc3sc(N)c(C#N)c32)nc2c1CN(C1COC1)C[C@]21CCOC1)[C@@H]1CC[C@H](C)N1C")
24
>>> resultvalue("CO[C@H]1CCN(C)[C@@H]1[C@H](C)Oc1nc(-c2noc3c2CCC[C@@]32CCCc3sc(N)c(C#N)c32)nc2c1CN(C1COC1)C[C@]21CCOC1")
18
>>> resultvalue("C[C@H](Oc1nc(-c2onc3c2CCC[C@@]32CCCc3sc(N)c(C#N)c32)nc2c1n(C)c(=O)n2[C@@H]1CCOC1)[C@@H]1CC[C@H](C)N1C")
43
>>> resultvalue("C[C@H](Oc1nc(-c2onc3c2CCC[C@@]32CCCc3sc(N)c(C#N)c32)nc2c1n(C)c(=O)n2[C@@]12COC[C@@H]1C2)[C@@H]1CC[C@H](C)N1C")
43
>>> resultvalue("C[C@H](Oc1nc(-c2onc3c2CCC[C@@]32CCCc3sc(N)c(C#N)c32)nc2c1n(C)c(=O)n2[C@@H]1CCCOC1)[C@@H]1CCCN1C")
25.5
